Molecular target: MDM2 (Homo sapiens, UniProt Q00987)
Sequence (Q00987 whole entry): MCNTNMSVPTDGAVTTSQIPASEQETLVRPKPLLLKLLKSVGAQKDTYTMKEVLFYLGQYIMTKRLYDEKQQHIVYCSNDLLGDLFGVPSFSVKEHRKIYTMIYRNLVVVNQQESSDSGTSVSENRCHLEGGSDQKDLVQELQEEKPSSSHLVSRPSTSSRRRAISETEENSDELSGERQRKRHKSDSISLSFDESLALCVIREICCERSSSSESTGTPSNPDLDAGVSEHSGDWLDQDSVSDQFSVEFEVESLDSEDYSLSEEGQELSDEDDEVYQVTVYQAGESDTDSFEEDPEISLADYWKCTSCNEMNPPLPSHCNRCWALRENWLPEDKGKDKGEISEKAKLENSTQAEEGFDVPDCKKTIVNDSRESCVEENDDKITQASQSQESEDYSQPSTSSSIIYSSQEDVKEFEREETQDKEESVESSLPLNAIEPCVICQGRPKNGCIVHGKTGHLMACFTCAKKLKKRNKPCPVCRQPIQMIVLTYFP
Test: MDM2 binding screen: displacement of fluorescent p53 peptide probe FP53 (fluorescence polarization)
Conditions: Acid 14; initial screen; crude macrocycle reactions
Numbered stars: 1 amine (or outer) side, 2 acyl side, 3 side chain; on linkers, the order of the positions; unused ones are H or OH. Bridge positions count the residues as written; N and C are the ends. Square brackets hold non-standard residues; d marks the D form. Peptide text beside a SMILES is read from it. * marks the point of attachment. ξ: configuration not given here. ξPro(4-NHCO(5-Cl-2-thienyl)) = O=C(NC1CNC(C(=O)O)C1)c1ccc(Cl)s1; 2Thenoyl(5-Cl) = O=C(c1ccc(Cl)s1)*; Cysteamide = C(CS[*:3])N[*:1]; Dap = NC[CH](N)C(=O)O; Mpa = O=C(O)CCS
Quick list: fraction fluorescent probe displaced, Screen per entry.
Reply with just the number.

Some compounds with recorded fraction fluorescent probe displaced, Screen:
O=C1NC(Cc2ccccc2)C(=O)N2CCN(C(=O)c3ccc(Cl)s3)CC2C(=O)NCCSSCCC(=O)N2CCCC12 (centres unmarked) [X B1 F D7 Acid 14] = 0.053
O=C1CCSSCCNC(=O)[C@H]2CCCN(C2)C(=O)C2(CCN(C(=O)c3ccc(Cl)s3)CC2)NC(=O)[C@H](Cc2ccccc2)N1 [X F D6 B4 Acid 14] = 0.053
O=C1CCSSCCNC(=O)C(CNC(=O)c2ccc(Cl)s2)NC(=O)C2CCCN2C(=O)C(Cc2ccccc2)N1 (centres unmarked) [X F B1 D3 Acid 14] ([Mpa]FP[Dap](2Thenoyl(5-Cl))-Cysteamide; disulfide 1-C; configuration not given here) = 0.17
O=C(NC1CC2C(=O)N3CCCC3C(=O)NC(Cc3c[nH]c4ccccc34)C(=O)NCCSSCCC(=O)N2C1)c1ccc(Cl)s1 (centres unmarked) [X D5 B1 W Acid 14] ([Mpa][ξPro(4-NHCO(5-Cl-2-thienyl))]PW-Cysteamide; disulfide 1-C; configuration not given here) = 0.17

In the following, a different compound is considered.
Would you kindly share the measured fraction fluorescent probe displaced, Screen for O=C(NC[C@@H]1NC(=O)[C@@H]2CCCN2C(=O)CCSSCCNC(=O)[C@H](Cc2c[nH]c3ccccc23)NC1=O)c1ccc(Cl)s1 [X B1 D3 W Acid 14] ([Mpa]P[Dap](2Thenoyl(5-Cl))W-Cysteamide; disulfide 1-C) ?
0.17

Provenance of the data: paper PMC9250534
